Values from paper PMC8381248

# Assay Explanation: Pharmacokinetic study in rat plasma after intravenous and oral administration
# Type: in vivo, Sprague-Dawley (SD) rats
# Condition Set: male, Sprague-Dawley; rat plasma, PO 40 mg/kg, n = 3
Property Name: AUC(0-t) (ng·h/mL)
Quick note: give the figure in ng·h/mL, leave out the unit.

Asked: State the recorded AUC(0-t) for this entry: COc1cc(C2OCC3C(c4ccc(OC5OC(CO)C(O)C(O)C5O)c(OC)c4)OCC23)ccc1OC1OC(CO)C(O)C(O)C1O (single isomer, unassigned; (+))
Given back: 113

###

# Assay Explanation: Pharmacokinetic study in rat plasma after intravenous and oral administration
# Assay type: in vivo, Sprague-Dawley (SD) rats
# Condition Set: male, Sprague-Dawley; rat plasma, IV 5 mg/kg, n = 3
Property Name: Tmax

Asked: State the recorded Tmax for this entry: COc1cc(C2OCC3C(c4ccc(OC5OC(CO)C(O)C(O)C5O)c(OC)c4)OCC23)ccc1OC1OC(CO)C(O)C(O)C1O (single isomer, unassigned; (+))
Given back: 6 min

###

# Assay Explanation: Pharmacokinetic study in rat plasma after intravenous and oral administration
# Format: in vivo, Sprague-Dawley (SD) rats
# Condition Set: male, Sprague-Dawley; rat plasma, IV 5 mg/kg, n = 3
Property Name: AUC(0-t) (ng·h/mL)
Quick note: give the figure in ng·h/mL, leave out the unit.

Asked: State the recorded AUC(0-t) for this entry: COc1cc(C2OCC3C(c4ccc(OC5OC(CO)C(O)C(O)C5O)c(OC)c4)OCC23)ccc1OC1OC(CO)C(O)C(O)C1O (single isomer, unassigned; (+)) [PDG]
Given back: 7470

###

# Assay Explanation: Pharmacokinetic study in rat plasma after intravenous and oral administration
# Assay type: in vivo, Sprague-Dawley (SD) rats
# Condition Set: male, Sprague-Dawley, plasma; rat, from AUClast of IV 5 mg/kg and PO 40 mg/kg; read-out: absolute oral bioavailability (F%)
Property Name: bioavailability

Asked: State the recorded bioavailability for this entry: COc1cc(C2OCC3C(c4ccc(OC5OC(CO)C(O)C(O)C5O)c(OC)c4)OCC23)ccc1OC1OC(CO)C(O)C(O)C1O (single isomer, unassigned; (+)) [PDG]
Given back: ~0.19%

###

# Assay Explanation: Pharmacokinetic study in rat plasma after intravenous and oral administration
# Format: in vivo, Sprague-Dawley (SD) rats
# Condition Set: male, Sprague-Dawley, rat, plasma, iv, 5 mg/kg, rat plasma, IV 5 mg/kg; ng/ml value expressed in molar units; read-out: Cmax
Property Name: Cmax (µM)
Quick note: give the figure in µM, leave out the unit.

Asked: State the recorded Cmax for this entry: COc1cc(C2OCC3C(c4ccc(OC5OC(CO)C(O)C(O)C5O)c(OC)c4)OCC23)ccc1OC1OC(CO)C(O)C(O)C1O (single isomer, unassigned; (+))
Given back: 19.6

###

# Assay Explanation: Plasma protein binding rate, rapid equilibrium dialysis, rat plasma
# Format: in vitro ADME
# Condition Set: 37°C
Property Name: fraction unbound at 4 h, 10 µM
Answer with the value's number alone.

Asked: State the recorded fraction unbound at 4 h, 10 µM for this entry: COc1cc(C2OCC3C(c4ccc(OC5OC(CO)C(O)C(O)C5O)c(OC)c4)OCC23)ccc1OC1OC(CO)C(O)C(O)C1O (single isomer, unassigned; (+)) [PDG]
Given back: 0.623

###

# Assay Explanation: Pharmacokinetic study in rat plasma after intravenous and oral administration
# Type: in vivo, Sprague-Dawley (SD) rats
# Condition Set: male, Sprague-Dawley, rat, plasma, po, 40 mg/kg, rat plasma, PO 40 mg/kg; ng/ml value expressed in molar units; read-out: Cmax
Property Name: Cmax (nM)
Quick note: give the figure in nM, leave out the unit.

Asked: State the recorded Cmax for this entry: COc1cc(C2OCC3C(c4ccc(OC5OC(CO)C(O)C(O)C5O)c(OC)c4)OCC23)ccc1OC1OC(CO)C(O)C(O)C1O (single isomer, unassigned; (+))
Given back: 66.5

###

# Assay Explanation: in vitro
# Condition Set: rat, microsomes
Property Name: half-life at 5 µM (min)
Quick note: give the figure in min, leave out the unit.

Asked: State the recorded half-life at 5 µM for this entry: COc1cc(C2OCC3C(c4ccc(OC5OC(CO)C(O)C(O)C5O)c(OC)c4)OCC23)ccc1OC1OC(CO)C(O)C(O)C1O (single isomer, unassigned; (+))
Given back: 1040

###

# Assay Explanation: Pharmacokinetic study in rat plasma after intravenous and oral administration
# Format: in vivo, Sprague-Dawley (SD) rats
# Condition Set: male, Sprague-Dawley, rat, plasma, po, 40 mg/kg, rat plasma, PO 40 mg/kg, n = 3; read-out: Cmax
Property Name: Cmax (ng/mL)
Quick note: give the figure in ng/mL, leave out the unit.

Asked: State the recorded Cmax for this entry: COc1cc(C2OCC3C(c4ccc(OC5OC(CO)C(O)C(O)C5O)c(OC)c4)OCC23)ccc1OC1OC(CO)C(O)C(O)C1O (single isomer, unassigned; (+))
Given back: 45.3

###

# Assay Explanation: Kinetic solubility test in PBS
# Format: physicochemical
# Condition Set: phosphate-buffer saline (PBS); PBS (pH 7.4); μg/ml value expressed in µM
Property Name: solubility kinetic

Asked: State the recorded solubility kinetic for this entry: COc1cc(C2OCC3C(c4ccc(OC5OC(CO)C(O)C(O)C5O)c(OC)c4)OCC23)ccc1OC1OC(CO)C(O)C(O)C1O (single isomer, unassigned; (+))
Given back: > 100 µM

###

# Assay Explanation: Pharmacokinetic study in rat plasma after intravenous and oral administration
# Type: in vivo, Sprague-Dawley (SD) rats
# Condition Set: male, Sprague-Dawley; rat plasma, PO 40 mg/kg, n = 3
Property Name: Tmax (min)
Quick note: give the figure in min, leave out the unit.

Asked: State the recorded Tmax for this entry: COc1cc(C2OCC3C(c4ccc(OC5OC(CO)C(O)C(O)C5O)c(OC)c4)OCC23)ccc1OC1OC(CO)C(O)C(O)C1O (single isomer, unassigned; (+))
Given back: 30

###

# Assay Explanation: in vitro
# Condition Set: rat, microsomes
Property Name: microsomal CLint (µL/min/mg)
Quick note: give the figure in µL/min/mg, leave out the unit.

Asked: State the recorded microsomal CLint for this entry: COc1cc(C2OCC3C(c4ccc(OC5OC(CO)C(O)C(O)C5O)c(OC)c4)OCC23)ccc1OC1OC(CO)C(O)C(O)C1O (single isomer, unassigned; (+))
Given back: 1.3

###

# Assay Explanation: Pharmacokinetic study in rat plasma after intravenous and oral administration
# Type: in vivo, Sprague-Dawley (SD) rats
# Condition Set: male, Sprague-Dawley; rat plasma, PO 40 mg/kg, n = 3; read-out: AUCINF_pred
Property Name: AUC(0-inf) (ng·h/mL)
Quick note: give the figure in ng·h/mL, leave out the unit.

Asked: State the recorded AUC(0-inf) for this entry: COc1cc(C2OCC3C(c4ccc(OC5OC(CO)C(O)C(O)C5O)c(OC)c4)OCC23)ccc1OC1OC(CO)C(O)C(O)C1O (single isomer, unassigned; (+))
Given back: 121

###

# Assay Explanation: Metabolic stability in human liver microsomes
# Condition Set: human, microsomes
Property Name: microsomal CLint (µL/min/mg)
Quick note: give the figure in µL/min/mg, leave out the unit.

Asked: State the recorded microsomal CLint for this entry: COc1ccc2c(c1)[C@]13CCCC[C@@H]1[C@H](C2)N(C)CC3 [Dextromethorphan, dextromethorphan, reference compound]
Given back: 21.7

Asked: Another molecule to check: COc1cc(C2OCC3C(c4ccc(OC5OC(CO)C(O)C(O)C5O)c(OC)c4)OCC23)ccc1OC1OC(CO)C(O)C(O)C1O (single isomer, unassigned; (+))
Given back: 1.4
